- ASSAY_SYSTEM: T1, PTHR-1 (species and cells not stated for the assay) (Homo sapiens (Human), UniProt Q03431 27-593)
- T1 sequence: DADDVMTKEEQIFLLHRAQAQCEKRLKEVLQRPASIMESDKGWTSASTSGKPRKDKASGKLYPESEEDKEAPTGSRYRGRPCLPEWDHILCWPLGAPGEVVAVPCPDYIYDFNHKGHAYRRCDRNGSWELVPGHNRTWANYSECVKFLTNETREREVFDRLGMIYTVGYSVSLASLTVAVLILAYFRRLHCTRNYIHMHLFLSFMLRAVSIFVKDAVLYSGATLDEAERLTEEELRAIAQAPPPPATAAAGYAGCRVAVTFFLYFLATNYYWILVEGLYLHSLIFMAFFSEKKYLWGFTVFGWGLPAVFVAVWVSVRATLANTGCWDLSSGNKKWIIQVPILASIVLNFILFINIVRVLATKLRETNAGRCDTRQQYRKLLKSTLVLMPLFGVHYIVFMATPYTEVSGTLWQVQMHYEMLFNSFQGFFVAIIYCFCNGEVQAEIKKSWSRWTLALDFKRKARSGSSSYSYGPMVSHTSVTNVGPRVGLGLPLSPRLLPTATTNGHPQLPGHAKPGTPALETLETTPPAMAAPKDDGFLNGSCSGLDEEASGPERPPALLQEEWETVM
- ASSAY_TEXT: cell-based or functional assay
Non-standard residues stand in square brackets, D forms with d. Primed or numbered codes have the meaning given here. No end group written: not given here. APC = aminopyrrolidine carboxylic acid (2-aminopyrrolidine-4-carboxylic acid); ACPC″ = 2-aminocyclopentane carboxylic acid (X); ACPC = 2-aminocyclopentane carboxylic acid; β3hW = N[C@H](CC(=O)O)Cc1c[nH]c2ccccc12; β3hE = N[C@@H](CCC(=O)O)CC(=O)O; β3hF = N[C@H](CC(=O)O)Cc1ccccc1; β3hK = NCCCC[C@H](N)CC(=O)O; β3hM = CSCC[C@H](N)CC(=O)O; β3hD = NC(CC(=O)O)CC(=O)O
For each of the binders below, state its Fold PTH.
Give bare numbers, in fold.

// known answers, use as guide
[[record]]
binder = "[ACPC]VSEIQ[ACPC]MHNLGK[ACPC]LNS[ACPC]ERVEWLR[APC]KLQDVHN[ACPC]-NH2 (not fully specified; printed as XVSEIQXMHNLGKXLNSXERVEWLRZKLQDVHNX-NH2; also: further β3 residues, positions not shown (marking lost)) [CycD6_ACPC(1,7)]"
observed_property = "Fold PTH"
data_value = 7.3

[[record]]
binder = "[ACPC]VSEIQ[ACPC]MHNLGKHLNSMERVEWLRKKLQDVHNF-NH2 [ACPC(1,7)]"
observed_property = "Fold PTH"
data_value = 1.7

[[record]]
binder = "[ACPC]VSE[ACPC]Q[ACPC]MHNLGKWLNSMERVEWLRKKLQDVHNF-NH2 (not fully specified; printed as XVSEXQXMHNLGKWLNSMERVEWLRKKLQDVHNF-NH2; also: D6 β3 residues, positions not shown (marking lost)) [D6_ACPC(1,5,7)]"
observed_property = "Fold PTH"
data_value = 2040

[[record]]
binder = "[ACPC]VSEIQ[ACPC]MHNLGKWLNSMERVEWLRKKLQDVHNF-NH2 (not fully specified; printed as XVSEIQXMHNLGKWLNSMERVEWLRKKLQDVHNF-NH2; also: D6 β3 residues, positions not shown (marking lost)) [D6_ACPC(1,7)]"
observed_property = "Fold PTH"
data_value = 22.6

[[record]]
binder = "[ACPC]VSE[ACPC]Q[ACPC]MHNLGK[ACPC]LNS[ACPC]ERVEWLR[APC]KLQDVHN[ACPC]-NH2 (not fully specified; printed as XVSEXQXMHNLGKXLNSXERVEWLRZKLQDVHNX-NH2; also: further β3 residues, positions not shown (marking lost)) [CycD6_ACPC(1,5,7)]"
observed_property = "Fold PTH"
data_value = 266


Go through the items and report each one's Fold PTH.
1. [ACPC]VSE[ACPC]Q[ACPC]MHNLGKHLNSMERVEWLRKKLQDVHNF-NH2 [ACPC(1,5,7)]
2. [ACPC″]VSEIQ[ACPC″]MHNLGK[ACPC″]LNS[ACPC″]ERV[APC]WLR[APC]KLQ[ACPC″]VHN[ACPC″]-NH2 [FcycD6_ACPC(1,7)]
3. [ACPC″]VSE[ACPC″]Q[ACPC″]MHNLGK[ACPC″]LNS[ACPC″]ERV[APC]WLR[APC]KLQ[ACPC″]VHN[ACPC″]-NH2 [FcycD6_ACPC(1,5,7)]
4. SVSEIQLMHNLGK[β3hW]LNS[β3hM]ERV[β3hE]WLR[β3hK]KLQ[β3hD]VHN[β3hF]-NH2 (also called α/β-peptide D6) [D6]
5. SVSEIQLMHNLGK[ACPC″]LNS[ACPC″]ERV[β3hE]WLR[APC]KLQ[β3hD]VHN[ACPC″]-NH2 (also: β3 residues (bold, underlined) not marked in the text) [cycD6]

(A)
[36.7, 8.7, 234, 2.1, 1.3]

(Q) If you can, please state the reported Fold PTH value of SVSEIQLMHNLGK[ACPC]LNS[ACPC]ERV[APC]WLR[APC]KLQ[ACPC]VHN[ACPC]-NH2 (not fully specified; printed as SVSEIQLMHNLGKXLNSXERVZWLRZKLQXVHNX-NH2) [FcycD6] .
(A) 3.2
